This section presents binders with their documented EC50, PRNT with complement, RSV 18537 values.
Substrate: F protein of RSV strain 18537 (human respiratory syncytial virus strain 18537 (subtype B)) (UniProt P13843)
Sequence (P13843 26-574): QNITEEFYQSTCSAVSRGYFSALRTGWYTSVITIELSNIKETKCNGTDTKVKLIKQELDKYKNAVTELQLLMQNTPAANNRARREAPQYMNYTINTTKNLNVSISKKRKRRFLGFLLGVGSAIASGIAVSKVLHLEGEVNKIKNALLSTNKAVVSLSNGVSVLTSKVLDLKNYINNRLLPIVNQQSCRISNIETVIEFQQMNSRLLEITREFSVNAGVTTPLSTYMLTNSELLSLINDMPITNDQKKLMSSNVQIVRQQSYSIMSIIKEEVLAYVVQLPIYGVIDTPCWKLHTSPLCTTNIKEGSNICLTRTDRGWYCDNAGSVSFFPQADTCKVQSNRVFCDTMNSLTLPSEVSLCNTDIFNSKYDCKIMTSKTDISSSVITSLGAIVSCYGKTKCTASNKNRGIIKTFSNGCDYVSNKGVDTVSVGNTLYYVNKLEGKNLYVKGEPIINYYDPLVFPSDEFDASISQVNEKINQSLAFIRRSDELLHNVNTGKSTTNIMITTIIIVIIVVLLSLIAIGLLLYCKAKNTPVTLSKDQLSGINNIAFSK
Assay: cell-based or functional assay
A number alone suffices; assume µg/mL.

antibody 894 (clone 894) (antibody, human IgG1, kappa, V domains shown) VH: QVQLVESGGGVVQPGKSLRLSCAASGFRFSDYGMHWVRQAPSKGLEWVAVIWHDGSNIRYADSVRGRFSISRDNSKNTLYLQMNSMRADDTAFYYCARVPFQIWSGLYFDHWGQGTLVTVSS VL: EIVMTQSPATLSVSPGERATLSCRASQSVGNNLAWYQQRPGQAPRLLIYGASTRATGIPARFSGSGSGTEFTLTISSLQSEDFAVYYCQQYDKWPETFGQGTKVDIKR | 0.07

Lab note: next binder to report on.
I have this binder here, antibody 827 (clone 827) (antibody, human IgG1, kappa, V domains shown) VH: QVQLVQSGAEVKKPGASVKVSCRVSGHTFTALSKHWMRQGPGGGLEWMGFFDPEDGDTGYAQKFQGRVTMTEDTATGTAYMELSSLTSDDTAVYYCATVAAAGNFDNWGQGTLVTVSS VL: DIQMTQSPSSLAASVGDRVTITCRASQFISSYLHWYQQRPGKAPKLLMYAASTLQSGVPSRFSGSGSGTDFTLTISSLQPEDFATYYCQQSYTNPYTFGQGTKLEIKR , and I need its recorded EC50, PRNT with complement, RSV 18537. 0.1
